Reference source for all entries: patent US20250057844A1

experiment: First PK study: single oral dose, two formulations; type: in vivo, female Swiss Albino mice; settings: female, Swiss Albino, mouse, plasma, po, 10 mg/kg, single oral 10 mg/kg, Formulation 1, female mice; read-out: Apparent T1/2 (converted)
EXPERIMENTAL READOUT: half-life (h)
Express it in h; write the number only.

Note down half-life recorded for COc1cc(N2CCNCC2)ccc1Nc1ncc2c(n1)-n1ccc(C(=O)Nc3c(C)cccc3C)c1CC2 [compound of formula (I)]
3.66

* * *

test: First PK study: single oral dose, two formulations; format: in vivo, female Swiss Albino mice; settings: female, Swiss Albino, mouse, plasma, po, 10 mg/kg, single oral 10 mg/kg, Formulation 2, female mice
EXPERIMENTAL READOUT: AUC(0-inf) (ng·h/mL)
Express the result in ng·h/mL but write the number alone.

Answer with reported AUC(0-inf) of COc1cc(N2CCNCC2)ccc1Nc1ncc2c(n1)-n1ccc(C(=O)Nc3c(C)cccc3C)c1CC2
2770
